The values you see were collected from patent US20260152557A1.

biological target: T1, human CD3εδ-Fc heterodimer (Hu CD3ε Fc / CD3δ Fc-HIS) (human, UniProt P04234 22-100); test: SPR (Biacore 8K), CHO-produced Fab, monovalent, pH 6.0
T1 construct: range 22-100; Produced in HEK 293 cells with a heterologous signal peptide; heterodimer purified by Ni Sepharose and Mono Q; also called Hu CD3εδ Fc heterodimer; CD3εδ Fc-HIS heterodimer; not shown: Fc-HIS part of CD3δ Fc-HIS
T1 sequence (chain, as listed by the source mutant, form in doubt, chain 1 of 2): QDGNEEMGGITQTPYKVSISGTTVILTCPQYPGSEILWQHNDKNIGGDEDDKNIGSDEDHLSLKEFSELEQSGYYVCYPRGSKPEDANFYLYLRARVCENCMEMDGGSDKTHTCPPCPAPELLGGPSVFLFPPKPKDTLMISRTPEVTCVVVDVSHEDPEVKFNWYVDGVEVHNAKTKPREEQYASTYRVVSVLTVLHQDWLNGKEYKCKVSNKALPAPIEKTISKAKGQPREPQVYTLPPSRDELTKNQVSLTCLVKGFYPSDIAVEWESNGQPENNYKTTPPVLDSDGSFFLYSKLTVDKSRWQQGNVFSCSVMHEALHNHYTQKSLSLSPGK
T1 sequence (P04234 22-100, stated change not applied, form in doubt, chain 2 of 2): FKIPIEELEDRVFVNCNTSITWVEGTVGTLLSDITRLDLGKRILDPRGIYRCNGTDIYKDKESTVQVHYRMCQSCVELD
Measured pKd accompanies every entry in the list below.
Conceptually, pKd converts a concentration in mol/L into minus its log10.

binder="Fab of ADI-26906 (Antibody No. 1) (Fab, V domains shown, Fab made by papain digestion of the human IgG1 (yeast- or CHO-produced); also called Antibody No. 1 Fab; ADI-26906 Fab) VH: QVQLVQSGAEVKKPGASVKVSCKASGFNIKDYYMHWVRQAPGQRLEWMGWIDLENANTIYDAKFQGRVTITRDTSASTAYMELSSLRSEDTAVYYCARDAYGRYFYDVWGQGTLVTVSS VL: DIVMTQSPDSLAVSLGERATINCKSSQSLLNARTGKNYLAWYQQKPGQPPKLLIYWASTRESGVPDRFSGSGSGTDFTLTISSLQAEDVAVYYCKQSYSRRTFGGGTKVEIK" observed=8.90
binder="Fab of ADI-48587 (Antibody No. 2) (Fab, V domains shown, Fab made by papain digestion of the human IgG1 (yeast- or CHO-produced); also called Antibody No. 2 Fab; ADI-48587 Fab) VH: QVQLVQSGAEVKKPGASVKVSCKASGFNIKDYYMHWVRQAPGQRLEWMGWIDLENANTIYDAKFQGRVTITRDTSASTAYMELSSLRSEDTAVYYCARDHYHRYFYDVWGQGTLVTVSS VL: DIVMTQSPDSLAVSLGERATINCKSSQSLLNARTGHNYLAWYQQKPGQPPKLLIYWASTRESGVPDRFSGSGSGTDFTLTISSLQAEDVAVYYCKQSHSHRTFGGGTKVEIK" observed=7.36

# next binder below
**Query** Find the measured pKd of Fab of ADI-74968 (Antibody No. 6) (Fab, V domains shown, Fab made by papain digestion of the human IgG1 (yeast- or CHO-produced); also called Antibody No. 6 Fab; ADI-74968 Fab) VH: QVQLVQSGAEVKKPGASVKVSCKASGFNIKDYYMHWVRQAPGQRLEWMGWIDLENANTIYDAKFQGRVTITRDTSASTAYMELSSLRSEDTAVYYCARDAYHRYFYDVWGQGTLVTVSS VL: DIVMTQSPDSLAVSLGERATINCKSSQSLLNARTGHNYLAWYQQKPGQPPKLLIYWASTRESGVPDRFSGSGSGTDFTLTISSLQAEDVAVYYCKQSYSHRTFGGGTKVEIK and report it.
**Result** 8.20
